target system: (NVDP)3(NANP)2 (Plasmodium falciparum)
assay details: SPR, antibody on chip
pKd: −log10 of the molar value.
Listing of recorded pKd by entry.
property measured: pKd

* AB-007049 (antibody, V domains shown) VH: QMQLVESGGGVVQPGRSLRLSCTASGFTFSTYAMHWVRQSPGQGLQWVAVISNHETNKYYEDSVRGRFTISRDNSKNTLYLQMNSLRAEDTAVYYCARDGYSSSFFDFWGQGTLVTVSS VL: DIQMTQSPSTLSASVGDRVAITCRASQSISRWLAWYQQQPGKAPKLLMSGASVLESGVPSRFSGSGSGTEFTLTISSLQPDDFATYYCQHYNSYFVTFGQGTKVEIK | 5.15
* AB-007031 (antibody, V domains shown) VH: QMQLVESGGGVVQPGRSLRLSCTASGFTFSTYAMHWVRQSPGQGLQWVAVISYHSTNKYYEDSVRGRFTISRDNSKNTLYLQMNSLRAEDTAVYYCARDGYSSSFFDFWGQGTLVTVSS VL: DIQMTQSPSTLSASVGDRVAITCRASQSISRWLAWYQQQPGKAPKLLISGASVLESGVPSRFSGSGSGTEFTLTISSLQPDDFATYYCQHYNSYFVTFGQGTKVEIK | 5.59
* AB-007054 (antibody, V domains shown) VH: QMQLVESGGGVVQPGRSLRLSCTASGFTFSTYAMHWVRQSPGQGLQWVAVISYHSTNKYYEDSVRGRFTISRDNSKNTLYLQMNSLRAEDTAVYYCARDGYASSFFDFWGQGTLVTVSS VL: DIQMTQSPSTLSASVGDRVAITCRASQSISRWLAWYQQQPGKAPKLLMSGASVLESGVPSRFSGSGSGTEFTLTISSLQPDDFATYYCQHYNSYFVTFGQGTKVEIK | 5.25
* AB-007040 (antibody, V domains shown) VH: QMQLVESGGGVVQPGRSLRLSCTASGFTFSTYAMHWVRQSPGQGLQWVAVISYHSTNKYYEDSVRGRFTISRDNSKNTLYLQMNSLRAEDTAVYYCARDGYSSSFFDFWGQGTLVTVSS VL: DIQMTQSPSTLSASVGDRVAITCRASQSISRWLAWYQQQPGKAPKLLMSGASVLESGVPSRFSGSGSGTEFTLTISSLQPDDFATYYCQHYNSYYVTFGQGTKVEIK | 5.51
* AB-007070 (antibody, V domains shown) VH: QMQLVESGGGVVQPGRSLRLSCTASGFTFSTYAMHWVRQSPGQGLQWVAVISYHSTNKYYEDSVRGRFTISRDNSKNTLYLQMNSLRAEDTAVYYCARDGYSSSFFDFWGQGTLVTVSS VL: DIQMTQSPSTLSASVGDRVAITCRASQSISRWLAWYQQQPGKAPKLLMSAASVLESGVPSRFSGSGSGTEFTLTISSLQPDDFATYYCQHYNSYFVTFGQGTKVEIK | 4.94
* AB-007072 (antibody, V domains shown) VH: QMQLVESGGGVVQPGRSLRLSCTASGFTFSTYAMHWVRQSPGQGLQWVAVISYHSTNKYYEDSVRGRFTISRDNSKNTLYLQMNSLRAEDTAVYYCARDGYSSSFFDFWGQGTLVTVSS VL: DIQMTQSPSTLSASVGDRVAITCRASQSISRWLAWYQQQPGKAPKLLMSGASNLESGVPSRFSGSGSGTEFTLTISSLQPDDFATYYCQHYNSYFVTFGQGTKVEIK | 4.86
* AB-007059 (antibody, V domains shown) VH: QMQLVESGGGVVQPGRSLRLSCTASGFTFSTYAMHWVRQSPGQGLQWVAVISYHSTNKYYEDSVRGRFTISRDNSKNTLYLQMNSLRAEDTAVYYCARDGYSSTFFDFWGQGTLVTVSS VL: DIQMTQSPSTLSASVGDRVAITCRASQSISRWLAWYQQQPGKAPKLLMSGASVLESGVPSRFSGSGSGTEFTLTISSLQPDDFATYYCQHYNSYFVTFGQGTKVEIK | 4.76
* AB-007047 (antibody, V domains shown) VH: QMQLVESGGGVVQPGRSLRLSCTASGFTFSNYAMHWVRQSPGQGLQWVAVISYHSTNKYYEDSVRGRFTISRDNSKNTLYLQMNSLRAEDTAVYYCARDGYSSSFFDFWGQGTLVTVSS VL: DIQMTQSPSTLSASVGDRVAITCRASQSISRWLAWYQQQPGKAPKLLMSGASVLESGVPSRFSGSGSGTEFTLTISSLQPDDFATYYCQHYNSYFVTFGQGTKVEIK | 5.43
* AB-007032 (antibody, V domains shown) VH: QVQLVESGGGVVQPGRSLRLSCAASGFTFSTYAMHWVRQAPGQGLQWVAVISYHSTNKYYEDSVRGRFTISRDNSKNTLYLQMNSLRAEDTAVYYCARDGYSSSFFDFWGQGTLVTVSS VL: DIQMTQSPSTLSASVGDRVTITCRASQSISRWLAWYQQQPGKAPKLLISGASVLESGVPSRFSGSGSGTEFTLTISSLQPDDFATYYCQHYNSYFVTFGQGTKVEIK | 5.18
* AB-007043 (antibody, V domains shown) VH: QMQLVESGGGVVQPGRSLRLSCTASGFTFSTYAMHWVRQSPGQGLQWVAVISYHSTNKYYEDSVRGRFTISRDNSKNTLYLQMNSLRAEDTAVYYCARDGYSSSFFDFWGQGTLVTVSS VL: DIQMTQSPSTLSASVGDRVAITCRASQSISRWLAWYQQQPGKAPKLLMSGASVLEDGVPSRFSGSGSGTEFTLTISSLQPDDFATYYCQHYNSYFVTFGQGTKVEIK | 5.59
* AB-007063 (antibody, V domains shown) VH: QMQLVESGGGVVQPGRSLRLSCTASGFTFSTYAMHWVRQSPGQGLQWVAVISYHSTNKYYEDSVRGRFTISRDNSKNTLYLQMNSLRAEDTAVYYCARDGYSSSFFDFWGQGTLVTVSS VL: DIQMTQSPSTLSASVGDRVAITCRASQSISRWLAWYQQQPGKAPKLLMAGASVLESGVPSRFSGSGSGTEFTLTISSLQPDDFATYYCQHYNSYFVTFGQGTKVEIK | 5.41
